Target: T1, GST-WRNIP1 (Homo sapiens, UniProt Q96S55 1-665)
T1 sequence: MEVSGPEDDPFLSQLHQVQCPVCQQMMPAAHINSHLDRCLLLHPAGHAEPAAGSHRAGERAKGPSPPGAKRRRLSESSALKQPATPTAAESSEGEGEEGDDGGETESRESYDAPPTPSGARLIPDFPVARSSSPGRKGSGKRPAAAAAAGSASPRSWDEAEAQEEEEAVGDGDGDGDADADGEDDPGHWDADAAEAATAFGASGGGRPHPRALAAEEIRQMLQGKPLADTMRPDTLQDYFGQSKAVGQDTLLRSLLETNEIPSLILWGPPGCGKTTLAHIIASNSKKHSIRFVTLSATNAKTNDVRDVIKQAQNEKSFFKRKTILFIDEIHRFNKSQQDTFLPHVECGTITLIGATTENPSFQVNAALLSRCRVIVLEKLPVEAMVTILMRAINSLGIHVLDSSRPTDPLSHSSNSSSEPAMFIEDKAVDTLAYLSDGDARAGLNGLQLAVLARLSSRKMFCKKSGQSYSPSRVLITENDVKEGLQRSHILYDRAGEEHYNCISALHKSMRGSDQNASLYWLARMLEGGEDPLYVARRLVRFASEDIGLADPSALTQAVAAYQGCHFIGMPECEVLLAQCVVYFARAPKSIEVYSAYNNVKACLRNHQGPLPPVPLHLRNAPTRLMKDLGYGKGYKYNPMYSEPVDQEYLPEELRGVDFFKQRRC
Assay: fluorescence anisotropy; Hill n 0.88; Anisotropy: 10 nM DNA, 50 mM Tris-HCl pH 7.5, 90 mM KCl, 5 mM EDTA, with or without 1 mM ATP and 1.25 mM MgCl2, 25 C; EMSA: 50 nM DNA, 50 mM Tris-HCl pH 7.5, 150 mM KCl, 15 min 25 C, 6% native gel; DNA folded in 25 mM Tris-HCl pH 7.5, 50 mM KCl
Details: protein: recombinant; (GST fusion); label: 5' FITC on strand 1; 21 bp duplex at 3' end of strand 1; 5' ss G4 overhang 21 nt; strand 2 5' TTT overhang
reported_property: Kd (nM)
Dear colleague, please return just the value in nM, with no unit written.

[ask] Tell me the measured Kd of MYC G4 partial duplex (structured_DNA) DNA 1: TGAGGGTGGGTAGGGTGGGTGCGTCTGCGGCTGGCTCGAGGC DNA 2: TTTGCCTCGAGCCAGCCGCAGACG , please.
[reply] 108
